inhibition at 10 µM by entry:
- Test system: TNF-α
- test-details: Inhibition of TNF-α production by stimulated human peripheral blood leukocytes in vitro
- Type: cell-based
- measurement-conditions: Homo sapiens, Leukocyte, PBL, LPS stimulated, compound 10 μM; read-out: Percentage of inhibition of TNF-α production
Reply numerically in %, unit not repeated.

Query :: # inhibition at 10 µM lookup, item CC[C@H]1OC(=O)[C@H](C)[C@@H](O[C@H]2C[C@@](C)(OC)[C@@H](O)[C@H](C)O2)[C@H](C)[C@@H](O[C@@H]2O[C@H](C)C[C@H](N(C)C)[C@H]2O)[C@](C)(O)C[C@@H](C)CN(C)[C@H](C)[C@@H](O)[C@]1(C)O [Azithromycin, azithromycin, reference compound]
Result :: 36

Query :: # inhibition at 10 µM lookup, item CC[C@H]1OC(=O)[C@H](C)[C@@H](O[C@H]2C[C@@](C)(OC)[C@@H](O)[C@H](C)O2)[C@H](C)[C@@H](O[C@@H]2O[C@H](C)C[C@H](N(C)C)[C@H]2O)[C@](C)(O)C[C@@H](C)CN(C(=S)Nc2ccccc2F)[C@H](C)[C@@H](O)[C@]1(C)O [Compound 5]
Result :: 19

Next:
Query :: # inhibition at 10 µM lookup, item CC[C@H]1OC(=O)[C@H](C)[C@@H](O[C@H]2C[C@@](C)(OC)[C@@H](O)[C@H](C)O2)[C@H](C)[C@@H](O[C@@H]2O[C@H](C)C[C@H](N(C)C)[C@H]2O)[C@](C)(O)C[C@@H](C)CN(C(=S)Nc2cccc(C(F)(F)F)c2)[C@H](C)[C@@H](O)[C@]1(C)O [Compound 4]
Result :: 39

====

- Tested on: human peripheral blood mononuclear cells (PBMC)
- test-details: Human T-cell proliferation in vitro (3H-thymidine incorporation)
- Type: cell-based
- measurement-conditions: Homo sapiens, PBMC, PHA stimulated, compound 50 μM; read-out: Percentage of inhibition of proliferation of stimulated PBMC
Label Met when inhibition at 50 µM >= 40%; otherwise Not met.

These solved cases illustrate the format of a correct answer.
Query :: I'd appreciate it if you could say whether CC[C@H]1OC(=O)[C@H](C)[C@@H](O[C@H]2C[C@@](C)(OC)[C@@H](O)[C@H](C)O2)[C@H](C)[C@@H](O[C@@H]2O[C@H](C)C[C@H](N(C)C)[C@H]2O)[C@](C)(O)C[C@@H](C)CN(C)[C@H](C)[C@@H](O)[C@]1(C)O [Azithromycin, azithromycin, reference compound] has inhibition at 50 µM at least equal to 40%.
Result :: Not met

Query :: I'd appreciate it if you could say whether CC[C@H]1OC(=O)[C@H](C)[C@@H](O[C@H]2C[C@@](C)(OC)[C@@H](O)[C@H](C)O2)[C@H](C)[C@@H](O[C@@H]2O[C@H](C)C[C@H](N(C)C)[C@H]2O)[C@](C)(OC)C[C@@H](C)C(=O)[C@H](C)[C@@H](O)[C@]1(C)O [Clarithromycin, clarithromycin, reference compound] has inhibition at 50 µM at least equal to 40%.
Result :: Not met

Query :: I'd appreciate it if you could say whether CC[C@H]1OC(=O)[C@H](C)[C@@H](O[C@H]2C[C@@](C)(OC)[C@@H](O)[C@H](C)O2)[C@H](C)[C@@H](O[C@@H]2O[C@H](C)C[C@H](N(C)C)[C@H]2O)[C@](C)(O)C[C@@H](C)CN(C(=S)Nc2ccccc2F)[C@H](C)[C@@H](O)[C@]1(C)O [Compound 5] has inhibition at 50 µM at least equal to 40%.
Result :: Met

Query :: I'd appreciate it if you could say whether CC[C@H]1OC(=O)[C@H](C)[C@@H](O[C@H]2C[C@@](C)(OC)[C@@H](O)[C@H](C)O2)[C@H](C)[C@@H](O[C@@H]2O[C@H](C)C[C@H](N(C)C)[C@H]2O)[C@](C)(O)C[C@@H](C)CN(C(=S)Nc2cccc(C(F)(F)F)c2)[C@H](C)[C@@H](O)[C@]1(C)O [Compound 4] has inhibition at 50 µM at least equal to 40%.
Result :: Met

Query :: I'd appreciate it if you could say whether CC[C@H]1OC(=O)[C@H](C)[C@@H](O)[C@H](C)[C@@H](O[C@@H]2O[C@H](C)C[C@H](N(C)C)[C@H]2O)[C@](C)(O)C[C@@H](C)CN(C(=O)Nc2cccc(C(F)(F)F)c2)[C@H](C)[C@@H](O)[C@]1(C)O [Compound 13] has inhibition at 50 µM at least equal to 40%.
Result :: Met

Now let's try a different one.
Query :: I'd appreciate it if you could say whether CC[C@H]1OC(=O)[C@H](C)[C@@H](O[C@H]2C[C@@](C)(OC)[C@@H](O)[C@H](C)O2)[C@H](C)[C@@H](O[C@@H]2O[C@H](C)C[C@H](N(C)C)[C@H]2O)[C@](C)(O)C[C@@H](C)CN(C(=S)Nc2cccc(Br)c2)[C@H](C)[C@@H](O)[C@]1(C)O [Compound 6] has inhibition at 50 µM at least equal to 40%.
Result :: Met
